target: human TRPA1 (Homo sapiens, UniProt O75762); construct: expressed in transfected cells; host or cells: CHO cells; assay: TRPA1 FLIPR Tetra calcium influx assay in CHO cells (block of cinnamaldehyde-induced calcium influx); format: cell-based; conditions: Table 2; CHO cells expressing TRPA1; agonist cinnamaldehyde 75 uM; 20 min compound incubation; Hill coefficient fixed to 1.5; read-out: hTRPA1 CHO Ca2+ AUC EVO (IC50)
Sequence (O75762 whole entry): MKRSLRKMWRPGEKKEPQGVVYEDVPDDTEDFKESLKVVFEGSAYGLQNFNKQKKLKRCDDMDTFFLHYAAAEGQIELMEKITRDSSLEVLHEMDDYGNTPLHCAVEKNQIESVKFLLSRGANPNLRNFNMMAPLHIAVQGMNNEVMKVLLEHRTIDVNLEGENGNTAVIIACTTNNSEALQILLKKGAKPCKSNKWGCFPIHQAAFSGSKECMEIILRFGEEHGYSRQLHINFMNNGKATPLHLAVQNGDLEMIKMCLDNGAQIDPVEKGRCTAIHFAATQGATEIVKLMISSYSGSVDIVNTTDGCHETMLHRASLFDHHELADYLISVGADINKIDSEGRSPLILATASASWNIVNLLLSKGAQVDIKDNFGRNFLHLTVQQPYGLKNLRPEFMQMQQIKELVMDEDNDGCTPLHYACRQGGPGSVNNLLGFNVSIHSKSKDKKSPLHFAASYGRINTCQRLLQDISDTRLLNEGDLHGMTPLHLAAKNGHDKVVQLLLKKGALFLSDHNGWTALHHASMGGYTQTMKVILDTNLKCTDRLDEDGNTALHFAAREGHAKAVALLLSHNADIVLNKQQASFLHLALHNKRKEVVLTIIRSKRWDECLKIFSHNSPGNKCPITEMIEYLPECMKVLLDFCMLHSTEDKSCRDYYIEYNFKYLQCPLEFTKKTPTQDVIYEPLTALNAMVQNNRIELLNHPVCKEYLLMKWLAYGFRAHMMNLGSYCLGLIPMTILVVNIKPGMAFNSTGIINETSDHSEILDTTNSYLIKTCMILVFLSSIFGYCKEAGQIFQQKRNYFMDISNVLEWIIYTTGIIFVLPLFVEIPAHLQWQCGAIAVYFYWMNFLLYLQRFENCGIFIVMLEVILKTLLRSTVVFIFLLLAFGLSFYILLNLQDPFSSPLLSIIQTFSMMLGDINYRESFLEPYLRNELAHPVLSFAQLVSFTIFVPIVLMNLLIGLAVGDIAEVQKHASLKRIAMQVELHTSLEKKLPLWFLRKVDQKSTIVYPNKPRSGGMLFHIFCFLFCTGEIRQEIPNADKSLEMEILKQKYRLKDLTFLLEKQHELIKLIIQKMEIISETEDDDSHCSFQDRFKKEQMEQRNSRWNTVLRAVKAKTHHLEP
Hi there, I'd appreciate the recorded IC50 for every entry that follows.
# output: bare number, implied unit nM

*Q* Give its IC50 value. Item: `C[C@@]1(F)C[C@@H](C(=O)NCc2cc(-c3cnc(C(F)(F)F)nc3)ncc2C(F)(F)F)N(S(=O)(=O)c2ccc(F)cc2)C1`
*A* 4.24

*Q* Give its IC50 value. Item: `O=C(NCc1cc(-c2cnc(C(F)(F)F)nc2)ncc1F)[C@@H]1CC[C@H](C(F)(F)F)N1S(=O)(=O)c1ccc(F)cc1`
*A* 21.6

*Q* Give its IC50 value. Item: `O=C(NCc1cc(-c2cnc(C(F)(F)F)nc2)ncn1)[C@@H]1CC[C@H](C(F)(F)F)N1S(=O)(=O)c1ccc(F)cc1`
*A* 42.2

*Q* Give its IC50 value. Item: `C[C@H]1[C@H](F)C[C@@H](C(=O)NCc2cc(-c3cnc(C(F)(F)F)nc3)nc(C3CC3)c2C(F)(F)F)N1S(=O)(=O)c1ccc(F)cc1`
*A* 0.7

*Q* Give its IC50 value. Item: `C[C@H]1[C@H](F)C[C@@H](C(=O)NCc2cc(-c3cnc(C(F)(F)F)nc3)ncn2)N1S(=O)(=O)c1ccc(F)cc1`
*A* 17.3

*Q* Give its IC50 value. Item: `C[C@H]1[C@H](F)C[C@@H](C(=O)NCc2cc(-c3cnc(C(F)(F)F)nc3)ccc2C(F)(F)F)N1S(=O)(=O)c1ccc(F)cc1`
*A* 1.75

*Q* Give its IC50 value. Item: `C[C@H]1[C@H](F)C[C@@H](C(=O)NCc2cc(-c3cnc(C(F)(F)F)nc3)c(F)cn2)N1S(=O)(=O)c1ccc(F)cc1`
*A* 38.8

*Q* Give its IC50 value. Item: C[C@H]1[C@H](F)C[C@@H](C(=O)NCc2cn([C@H]3CC[C@H](C(F)(F)F)CC3)nc2C(F)(F)F)N1S(=O)(=O)c1ccc(F)cc1 [Example 50]
*A* 50.5

*Q* Give its IC50 value. Item: O=C(NCc1ccc(F)c(-c2cnc(C(F)(F)F)nc2)c1)[C@H]1[C@@H]2C[C@@H]2CN1S(=O)(=O)c1ccc(F)cc1 (stereo in doubt)
*A* 11.3

*Q* Give its IC50 value. Item: `C[C@H]1[C@H](F)C[C@@H](C(=O)NCc2cc(-c3cnc(C(F)(F)F)nc3)ncc2F)N1S(=O)(=O)c1ccncc1`
*A* 630

*Q* Give its IC50 value. Item: `C[C@H]1[C@H](F)C[C@@H](C(=O)NCc2cc(N3CC(OC(F)(F)F)C3)ncn2)N1S(=O)(=O)c1ccc(F)cc1`
*A* 2400

*Q* Give its IC50 value. Item: `C[C@H]1[C@H](F)C[C@@H](C(=O)NCc2cc(-c3cnc(C(F)(F)F)s3)ncc2F)N1S(=O)(=O)c1ccc(F)cc1`
*A* 5.38

*Q* Give its IC50 value. Item: `C[C@H]1CC[C@@H](C(=O)NCc2cc(-c3cnc(C(F)(F)F)nc3)nc(-c3cnc(C(F)(F)F)nc3)c2)N1S(=O)(=O)c1ccc(F)cc1`
*A* 3.17

*Q* Give its IC50 value. Item: `C[C@H]1CCC[C@@H](C(=O)NCc2cc(-c3cnc(C(F)(F)F)nc3)ncc2F)N1S(=O)(=O)c1ccc(F)cc1`
*A* 73.9

*Q* Give its IC50 value. Item: `C[C@H]1[C@H](F)C[C@@H](C(=O)NCc2cc(C(F)(F)F)nc(C3CC3)c2F)N1S(=O)(=O)c1ccc(F)cc1`
*A* 10.8

*Q* Give its IC50 value. Item: `C[C@H]1[C@H](F)C[C@@H](C(=O)NCc2cc(-c3cnc(C(F)(F)F)nc3)ncc2C(F)(F)F)N1S(=O)(=O)c1ccc(Cl)nc1`
*A* 1.96

*Q* Give its IC50 value. Item: `C[C@H]1[C@H](F)C[C@@H](C(=O)NCc2cc(-c3cnc(C(F)(F)F)nc3)ncc2C(F)F)N1S(=O)(=O)c1ccc(F)cc1`
*A* 4.07

*Q* Give its IC50 value. Item: O=C(NCc1cc(-c2cnc(C(F)(F)F)nc2)ncc1F)[C@H]1[C@@H]2C[C@@H]2CN1S(=O)(=O)c1ccc(F)cc1 (stereo in doubt)
*A* 14.6

*Q* Give its IC50 value. Item: `C[C@H]1[C@H](F)C[C@@H](C(=O)NCc2cn(-c3cnc(C(F)(F)F)s3)nc2Cl)N1S(=O)(=O)c1ccc(F)cc1`
*A* 7.64

*Q* Give its IC50 value. Item: `C[C@H]1[C@H](F)C[C@@H](C(=O)NCc2cc(-c3cnc(C(F)(F)F)nc3)ncc2CF)N1S(=O)(=O)c1ccc(F)cc1`
*A* 11.7

*Q* Give its IC50 value. Item: `C[C@H]1[C@H](F)C[C@@H](C(=O)NCc2cc(OCCOC(F)(F)F)c(F)cn2)N1S(=O)(=O)c1ccc(F)cc1`
*A* 166

*Q* Give its IC50 value. Item: C[C@H]1[C@H](F)C[C@@H](C(=O)N(COP(=O)(O)O)Cc2cc(-c3cnc(C(F)(F)F)nc3)ncc2F)N1S(=O)(=O)c1ccc(F)cc1 [Example 157, phosphate]
*A* 1200

*Q* Give its IC50 value. Item: `C[C@H]1[C@H](F)C[C@@H](C(=O)NCc2cc(-c3cnc(C(F)(F)F)nc3)ncc2C2CC2)N1S(=O)(=O)c1ccc(F)cc1`
*A* 4.9

*Q* Give its IC50 value. Item: `C[C@H]1[C@H](F)C[C@@H](C(=O)NCc2cc(-c3cnc(C(F)(F)F)nc3)c(C#N)c(C3CC3)n2)N1S(=O)(=O)c1ccc(F)cc1`
*A* 12

###

target: human TRPA1 (Homo sapiens); construct: expressed in transfected cells; host or cells: CHO cells; assay: TRPA1 FLIPR Tetra calcium influx assay in CHO cells (block of cinnamaldehyde-induced calcium influx); format: cell-based; conditions: Table 2; CHO cells expressing TRPA1; agonist cinnamaldehyde 75 uM; 20 min compound incubation; Hill coefficient fixed to 1.5; read-out: hTRPA1 CHO Ca2+ AUC EVO (IC50)
pIC50: −log10 of the molar value.
Mark rule not met for pIC50 values under 8, and rule met for everything at or above.

*Q* Is pIC50 at least 8? Consider C[C@H]1[C@H](F)C[C@@H](C(=O)NCc2cc(-c3cnc(C(F)(F)F)nc3)ncc2C(F)(F)F)N1S(=O)(=O)c1cc2cc(F)ccc2o1 [Example 153]
*A* rule met

*Q* Is pIC50 at least 8? Consider C[C@H]1[C@H](F)C[C@@H](C(=O)NCc2cc(-c3ccc(C(F)(F)F)nc3)ncc2C(F)(F)F)N1S(=O)(=O)c1ccc(F)cc1 [Example 115]
*A* rule met

*Q* Is pIC50 at least 8? Consider C[C@H]1[C@H](F)C[C@@H](C(=O)NCc2cc(-c3cnc(C(F)(F)F)nc3)c(OC(F)F)cn2)N1S(=O)(=O)c1ccc(F)cc1 [Example 146]
*A* rule not met

*Q* Is pIC50 at least 8? Consider C[C@H]1[C@H](F)C[C@@H](C(=O)NCc2cc(-c3cnc(C(F)(F)F)nc3)ccn2)N1S(=O)(=O)c1ccc(F)cc1 [Example 29]
*A* rule not met

*Q* Is pIC50 at least 8? Consider C[C@H]1[C@H](F)C[C@@H](C(=O)NCc2cc(C(F)(F)F)nc(C3CC3)n2)N1S(=O)(=O)c1cc2cc(F)ccc2o1 [Example 120]
*A* rule met

*Q* Is pIC50 at least 8? Consider C[C@H]1[C@H](F)C[C@@H](C(=O)NCc2cc(-c3cnc(C(F)(F)F)nc3)c(OC(F)(F)F)cn2)N1S(=O)(=O)c1ccc(F)cc1 [Example 106]
*A* rule met

*Q* Is pIC50 at least 8? Consider C[C@H]1[C@H](F)C[C@@H](C(=O)NCc2cc(-c3cnc(C(F)(F)F)nc3)ncc2F)N1S(=O)(=O)c1cc2ccccc2o1 [Example 95]
*A* rule met

*Q* Is pIC50 at least 8? Consider O=C(NCc1cc(-c2cnc(C(F)(F)F)nc2)ncc1C(F)F)[C@@H]1[C@H]2C[C@H]2CN1S(=O)(=O)c1ccc(F)cc1 [Example 150]
*A* rule met

*Q* Is pIC50 at least 8? Consider O=C(NCc1cc(-c2cnc(C(F)(F)F)nc2)ncn1)[C@@H]1C[C@@H]2C[C@@H]2N1S(=O)(=O)c1ccc(F)cc1 [Example 18]
*A* rule not met

*Q* Is pIC50 at least 8? Consider C[C@H]1[C@H](F)C[C@@H](C(=O)NCc2cc(-c3cnc(C4CC4)nc3)ncc2F)N1S(=O)(=O)c1ccc(F)cc1 [Example 141]
*A* rule not met

*Q* Is pIC50 at least 8? Consider C[C@H]1[C@H](F)C[C@@H](C(=O)NCc2cc(-c3cnc(C(F)(F)F)nc3)cnc2C(F)(F)F)N1S(=O)(=O)c1ccc(F)cc1 [Example 152]
*A* rule met

*Q* Is pIC50 at least 8? Consider O=C(NCc1cc(-c2cnc(C(F)(F)F)nc2)c(F)cc1F)[C@@H]1C[C@@H](F)CN1S(=O)(=O)c1ccc(F)cc1 [Example 74]
*A* rule not met

*Q* Is pIC50 at least 8? Consider C[C@H]1[C@H](F)C[C@@H](C(=O)NCc2cc(-c3cnc(C(F)(F)F)nc3)ncc2C(F)(F)F)N1S(=O)(=O)c1ccc(F)cc1 [Example 103]
*A* rule met

*Q* Is pIC50 at least 8? Consider O=C(NCc1ccc(F)c(-c2cnc(C(F)(F)F)s2)c1)[C@@H]1C[C@@H](F)CN1S(=O)(=O)c1ccc(F)cc1 [Example 77]
*A* rule not met

*Q* Is pIC50 at least 8? Consider C[C@H]1[C@H](F)C[C@@H](C(=O)NCc2cc(OCc3ccc(F)cn3)c(F)cn2)N1S(=O)(=O)c1ccc(F)cc1 [Example 47]
*A* rule not met

*Q* Is pIC50 at least 8? Consider O=C(NCc1cc(-c2ccc(S(F)(F)(F)(F)F)cc2)ncc1F)[C@@H]1C[C@@H](F)CN1S(=O)(=O)c1ccc(F)cc1 [Example 59]
*A* rule not met

*Q* Is pIC50 at least 8? Consider N#Cc1cc(F)c(-c2cnc(C(F)(F)F)nc2)cc1CNC(=O)[C@@H]1C[C@@H](F)CN1S(=O)(=O)c1ccc(F)cc1 [Example 64]
*A* rule not met

*Q* Is pIC50 at least 8? Consider O=C(NCc1cc(-c2cnc(C(F)(F)F)nc2)nc(C2CC2)c1)[C@@H]1C[C@@H](F)CN1S(=O)(=O)c1ccc(F)cc1 [Example 67]
*A* rule not met

*Q* Is pIC50 at least 8? Consider C[C@H]1[C@H](F)C[C@@H](C(=O)NCc2cc(-c3cnc(C(F)(F)F)nc3)ncc2F)N1S(=O)(=O)c1ccc(Cl)s1 [Example 101]
*A* rule met
